Recorded conditions: in n-pentanol, 313.15 K
Experimental readout: solubility (mole fraction)
Answers are plain numbers.

In plain terms, `O=c1cc(CO)occ1O` has a documented solubility (mole fraction) of 0.00733

----------
Recorded conditions: in methyl acetate, 323.15 K
Experimental readout: solubility (mole fraction)
One number for each entry.

Per the records, this compound ( `O=c1cc(CO)occ1O` ) has solubility (mole fraction) equal to 0.00556

----------
Recorded conditions: in methyl acetate, 283.15 K
Experimental readout: solubility (mole fraction)
Give bare numbers.

# molecule `O=c1cc(CO)occ1O` ; its solubility (mole fraction) = 0.0011

----------
Recorded conditions: in isopropanol, 293.15 K
Experimental readout: solubility (mole fraction)

// field: solubility (mole fraction); key: `O=c1cc(CO)occ1O` ; value = 0.00392

----------
Recorded conditions: in n-pentanol, 278.15 K
Experimental readout: solubility (mole fraction)
Numbers only.

// field: solubility (mole fraction); key: `O=c1cc(CO)occ1O` ; value = 0.00185

----------
Recorded conditions: in methyl acetate, 308.15 K
Experimental readout: solubility (mole fraction)

Summary for this compound, `O=c1cc(CO)occ1O` : solubility (mole fraction) is 0.00317

----------
Recorded conditions: in n-pentanol, 298.15 K
Experimental readout: solubility (mole fraction)

Noted for `O=c1cc(CO)occ1O` : its solubility (mole fraction) reads 0.00417

----------
Recorded conditions: in THF, 293.15 K
Experimental readout: solubility (mole fraction)

The reported solubility (mole fraction) of the compound `O=c1cc(CO)occ1O` was 0.00663

----------
Recorded conditions: in sec-butanol, 313.15 K
Experimental readout: solubility (mole fraction)
Give bare numbers.

solubility (mole fraction) for `O=c1cc(CO)occ1O` is 0.00817

----------
Recorded conditions: in n-pentanol, 308.15 K
Experimental readout: solubility (mole fraction)
Answers are plain numbers.

Lookup result for `O=c1cc(CO)occ1O` ; measured solubility (mole fraction): 0.00611

----------
Recorded conditions: in n-butanol, 323.15 K
Experimental readout: solubility (mole fraction)
One number for each entry.

Noted for `O=c1cc(CO)occ1O` : its solubility (mole fraction) reads 0.011

----------
Recorded conditions: in methyl acetate, 298.15 K
Experimental readout: solubility (mole fraction)

// `O=c1cc(CO)occ1O` : solubility (mole fraction) value = 0.00213

----------
Recorded conditions: in n-pentanol, 303.15 K
Experimental readout: solubility (mole fraction)
Numbers only.

The compound listed as `O=c1cc(CO)occ1O` shows solubility (mole fraction) equal to 0.00506

----------
Recorded conditions: in methyl acetate, 278.15 K
Experimental readout: solubility (mole fraction)
One number for each entry.

Lab note: `O=c1cc(CO)occ1O` gave solubility (mole fraction) of 0.00085

----------
Recorded conditions: in isopropanol, 278.15 K
Experimental readout: solubility (mole fraction)
One number for each entry.

Just so you know, measured solubility (mole fraction) for `O=c1cc(CO)occ1O` came out at 0.00213

----------
Recorded conditions: in sec-butanol, 308.15 K
Experimental readout: solubility (mole fraction)
One number for each entry.

Sample `O=c1cc(CO)occ1O` ; solubility (mole fraction) observed: 0.0069

----------
Recorded conditions: in n-butanol, 278.15 K
Experimental readout: solubility (mole fraction)

For record `O=c1cc(CO)occ1O` the listed solubility (mole fraction) is 0.00193

----------
Recorded conditions: in THF, 313.15 K
Experimental readout: solubility (mole fraction)

Note to self: solubility (mole fraction) recorded for `O=c1cc(CO)occ1O` was 0.0134
